Just for reference, the supplement of paper PMC11417369 is where these values come from.

Tested on: PfAP2-G AP2 domain (GST-tagged)
Experiment: gcPBM binding intensity (ln(normalized median fluorescence intensity)); higher = stronger DNA binding
In all, about 25,000 sequences were measured (“ln(normalized median fluorescence intensity)”: median about 10, highest 2% from about 12 on). The sample as a whole holds a higher share of the highest values than the screen did.
Please provide measured gcPBM binding intensity (ln) for the entries that follow.
Kindly provide the number alone.

Record AAATTACTTTCACAGTGTACTTGGAAAAAAAAAAGA [XGTACX_site1046] . Reported gcPBM binding intensity (ln): 11.3

So, ATATAAATAAAAAAAAGTACATAATATATAAAAATA [XGTACX_site3065] ? Its gcPBM binding intensity (ln) was 11.5

gcPBM binding intensity (ln) reading for TATATTATATTTTTATGTACTTATTTATTTTGTTTC [XGTACX_site6145] : 11.3

The recorded gcPBM binding intensity (ln) for entry TCTTTGTACTTTCACATGTACACCCAAATGGAAATT [CACACA_negctrl_site1442] equals 11.8

# gcPBM binding intensity (ln) of AAAAAAAAGAAAAACACACACATATATATATATAAT [CACACA_site4707] = 9.72

Just so you know, measured gcPBM binding intensity (ln) for AACGATATAGGTACTACACACATTATGTCATCCTAT [CACACA_site7205] came out at 11.2

gcPBM binding intensity (ln) measured on AATGGAAATTTTTCTTGTACACATATATGACATGTT [XGTACX_site1691] = 11.3

According to the records, this sequence AACGATATCTGTACTACACACATTATGTCATCCTAT [CACACA_site5374] displays gcPBM binding intensity (ln) of 11.8

sequence GGCAAATTTATTATACCCACATACATACATACATAC [XGTACX_negctrl_site186] , gcPBM binding intensity (ln) observed: 10.8

// sample TATAAATAAATGCGTACACACTAATAAAAAAAAAAA [CACACA_site4630] , its gcPBM binding intensity (ln) was 11.6

Form field gcPBM binding intensity (ln), entry AATGTACAAATACGTACACACATATTTATATTTATA [CACACA_site6833] : 11.6

For this sequence ( TTTTTTTTTTTTTACACACACAAAATATTATCTGTA [CACACA_site5378] ), measured gcPBM binding intensity (ln) is 9.83

What the record says about ACATATAATATAAAGTGTACAAGAAAATAAAAATAA [XGTACX_site1273] : gcPBM binding intensity (ln) is 11.3

Lab note: TATAATATAAAAATGAGTACATAGATAATAATATTT [XGTACX_site2376] gave gcPBM binding intensity (ln) of 11.3

What the record says about TTTATGGAATAATCACGTACACACAAGAAAAAAAAA [XGTACX_site985] : gcPBM binding intensity (ln) is 11.4

The sequence listed as TCAAAGGAATTTTTATGTACATATAAACTTTATTCT [XGTACX_site3432] shows gcPBM binding intensity (ln) equal to 11.2

The sequence identified as ATAAATCATAAGGAGAGTACATAAATAAAATAATCA [XGTACX_site8825] registered its gcPBM binding intensity (ln) at 11.2

The sequence listed as TTTGTAATAAACTACTTTTTTTTTTTTTTTTTTTTT [CACACA_negctrl_site571] has a reported gcPBM binding intensity (ln) of 10.9

Lookup result for AACGATATATGTACTACACACATTATGTCATCCTAT [CACACA_site2464] ; measured gcPBM binding intensity (ln): 11.5
